Below, each entry is listed with its recorded pIC50.
Molecular target: HDAC6 human recombinant (Homo sapiens)
Sequence (Q9UBN7 1-1215): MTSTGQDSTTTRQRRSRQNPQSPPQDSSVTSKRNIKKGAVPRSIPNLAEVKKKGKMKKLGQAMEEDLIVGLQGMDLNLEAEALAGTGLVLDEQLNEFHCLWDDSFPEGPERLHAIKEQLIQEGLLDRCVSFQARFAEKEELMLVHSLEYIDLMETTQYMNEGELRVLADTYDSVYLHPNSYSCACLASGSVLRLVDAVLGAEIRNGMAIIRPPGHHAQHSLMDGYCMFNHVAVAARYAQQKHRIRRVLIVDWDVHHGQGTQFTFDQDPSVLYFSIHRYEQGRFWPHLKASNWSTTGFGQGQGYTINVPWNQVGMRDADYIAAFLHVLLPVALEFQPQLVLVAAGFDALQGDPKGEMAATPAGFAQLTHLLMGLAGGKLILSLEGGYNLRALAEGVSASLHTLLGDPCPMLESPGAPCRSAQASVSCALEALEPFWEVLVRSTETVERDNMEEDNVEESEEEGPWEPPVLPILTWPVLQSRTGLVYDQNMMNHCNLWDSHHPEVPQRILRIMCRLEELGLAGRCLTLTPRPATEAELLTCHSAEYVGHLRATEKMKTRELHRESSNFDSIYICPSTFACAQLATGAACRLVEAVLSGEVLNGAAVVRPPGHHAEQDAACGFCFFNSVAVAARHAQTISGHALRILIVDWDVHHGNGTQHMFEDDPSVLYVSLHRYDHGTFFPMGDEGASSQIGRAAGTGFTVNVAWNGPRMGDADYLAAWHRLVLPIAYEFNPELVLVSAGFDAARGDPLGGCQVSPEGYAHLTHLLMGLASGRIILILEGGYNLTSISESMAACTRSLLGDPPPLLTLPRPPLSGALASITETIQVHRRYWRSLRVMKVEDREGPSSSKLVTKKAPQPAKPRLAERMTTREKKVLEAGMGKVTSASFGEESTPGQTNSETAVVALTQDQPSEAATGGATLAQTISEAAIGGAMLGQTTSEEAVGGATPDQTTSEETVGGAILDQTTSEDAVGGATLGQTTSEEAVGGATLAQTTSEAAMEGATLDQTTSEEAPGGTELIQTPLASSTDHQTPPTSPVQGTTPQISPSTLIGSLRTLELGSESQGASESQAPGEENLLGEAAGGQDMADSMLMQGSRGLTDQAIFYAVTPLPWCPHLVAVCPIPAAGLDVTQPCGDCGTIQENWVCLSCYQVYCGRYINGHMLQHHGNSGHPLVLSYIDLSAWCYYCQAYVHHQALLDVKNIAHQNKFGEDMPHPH
Test: Inhibition of HDAC6 activity (fluorimetric assay)
Conditions: test concentrations 0.1, 1, 10, 100 and 1000 nM; 37° C., 60 minutes
Conceptually, pIC50 converts a concentration in mol/L into minus its log10.

Examples with their reported pIC50 follow.
- molecule: "O=C(NO)c1ccc(Cn2ccc3c(N4CCN(c5ccc(C(F)(F)F)cn5)CC4)ccnc32)cc1"
  target: "HDAC6 human recombinant (Homo sapiens)"
  assay_readout: "pIC50"
  test_value: 7.39
- molecule: "C[C@@H]1CN(c2ccnc3c2ccn3Cc2ccc(C(=O)NO)cc2)C[C@H](C)N1Cc1ccccc1"
  target: "HDAC6 human recombinant (Homo sapiens)"
  assay_readout: "pIC50"
  test_value: 8.34
- molecule: "O=C(NO)c1ccc(Cn2ccc3cc(-c4cccnc4)cnc32)cc1"
  target: "HDAC6 human recombinant (Homo sapiens)"
  assay_readout: "pIC50"
  test_value: 9.59
- molecule: "COc1ccc(CN2CCN(c3ccnc4c3ccn4Cc3ccc(C(=O)NO)cc3)CC2)cc1"
  target: "HDAC6 human recombinant (Homo sapiens)"
  assay_readout: "pIC50"
  test_value: 7.96
- molecule: "CC1(C)CC=C(c2cnc3c(ccn3Cc3ccc(C(=O)NO)cc3)c2)CC1"
  target: "HDAC6 human recombinant (Homo sapiens)"
  assay_readout: "pIC50"
  test_value: 7.03
- molecule: "O=C(NO)c1ccc(Cn2ccc3cc(-c4ccc(O)cc4)cnc32)cc1"
  target: "HDAC6 human recombinant (Homo sapiens)"
  assay_readout: "pIC50"
  test_value: 8.30

Problem: Return pIC50 for the following compound: CC(C)(F)CN1CCC(c2cnc3c(ccn3Cc3ccc(C(=O)NO)cc3)c2)CC1
Solution: 7.80

Problem: Return pIC50 for the following compound: O=C(NO)c1ccc(Cn2ccc3cc(C4=CCCCC4)cnc32)cc1
Solution: 7.74
